- Assay summary: Ocular tissue concentrations (aqueous humor, vitreous humor, iris, retina, choroid, cornea) after topical ocular, subcutaneous and intravitreal administration
- Format: in vivo, New Zealand White rabbits
- Assay conditions: New Zealand White, rabbit, retina homogenate, other: intravitreal, 2.5 mg/eye, Retina homogenate, 72 hr, left eye, intravitreal 2.5 mg/eye (group 5), individual animals; read-out: Conc. (ng/mL) OS
Endpoint label: concentration at 72 h (ng/mL)

{"columns": ["Smiles str", "Recorded result"],
 "data": [
  ["COC(=O)N[C@@H](Cc1ccccc1)C(=O)N[C@@H](Cc1ccc(NS(=O)(=O)O)cc1)c1csc(-c2cccs2)n1", 10800]
]}
